Value source: patent EP0106487A2

Reported ED50 is given for each of the following molecules.
System: Cox standard strain albino male mice
run_description: Mouse writhing inhibition assay (acetic acid-induced writhing)
Type: in vivo
protocol_conditions: sc, s.c. administration, dose required to inhibit acetic acid (0.60 percent, i.p.) induced writhing by fifty percent
Structures can show the parent of a compound that is named as a salt.
Only the number, expressed in mg/kg, is required.

molecule | ED50, mg/kg
CN1CCC23CCCC2(CCc2ccc(O)cc23)C1 (racemic) [Example 2] | 2.4

Give recorded ED50. Oc1ccc2c(c1)C13CCCC1(CC2)CNCC3 (centres unmarked) [Example 4] 52

Give recorded ED50. Oc1ccc2c(c1)C13CCCC1(CC2)CN(CC1CC1)CC3 (centres unmarked) [Example 6] 60

Give recorded ED50. COc1ccc2c(c1)C13CCCC1(CC2)CNCC3.Cl (centres unmarked) [Example 3] 56

Give recorded ED50. CN1CCC23CCCC2(CCc2ccccc23)C1 (racemic) [Example 8, hydrobromide] 23

Give recorded ED50. CCOC(=O)C1(c2ccccc2)CCN(C)CC1 [meperidine, reference compound] 2.8

Give recorded ED50. COc1ccc2c(c1)C13CCCC1(CC2)CN(C)CC3.Cl (centres unmarked) [Example 1] 17
